B1: RSPH3 (parent)
chain: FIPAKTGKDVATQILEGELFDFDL

- Variants of: B1
- assay: protein stability index of a GFP-peptide fusion (GPS, HEK-293T) (PSI 1-6); higher = more stable;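 further: lentivirally expressed fusions sorted by FACS into six bins by GFP to DsRed ratio, PSI derived from sequencing read proportions per bin multiplied by bin number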
- measurement_context: c terminus: a fixed tail appended
The entries below come with measured protein stability index values attached.
Keep it simple and answer with nothing but the number.

Before answering, review these 6 worked examples.
T6A :: 2
G7Q :: 1.97
D23L :: 1.98
V10Y :: 1.99
D9H :: 2.03
D23G :: 2.02

Record G7K . Reported protein stability index: 2.03

Record L19Y . Reported protein stability index: 2.02

Record I14C . Reported protein stability index: 1.99

Record A11I . Reported protein stability index: 2

Record L15M . Reported protein stability index: 2.03
